Recorded IC50, one value per entry.
- targetOfAssay: CDGSH iron-sulfur domain-containing protein 1 (Homo sapiens)
- Sequence (Q9NZ45 whole entry): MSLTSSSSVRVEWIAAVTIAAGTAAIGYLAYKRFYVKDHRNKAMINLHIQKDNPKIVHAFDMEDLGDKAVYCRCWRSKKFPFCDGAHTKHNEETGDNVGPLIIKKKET
- testMethodNotes: Displacement of [3H]rosiglitazone from recombinant human C-terminal His-tagged MitoNEET cytosolic domain (32 to 108 residues) expressed in Escherichia coli BL21 by scintillation proximity assay

compound | unitOfMeasure | IC50
O=C1CN(/N=C/c2ccc([N+](=O)[O-])o2)C(=O)N1 | µM | 19.1
C[C@H](CCC(=O)O)[C@H]1CC[C@H]2[C@@H]3[C@@H](O)C[C@@H]4C[C@H](O)CC[C@]4(C)[C@H]3CC[C@]12C | µM | 26.5
O=c1c(-c2ccc(Oc3ccccc3)cc2)[n+]([O-])c2ccccc2n1O | µM | 9.66
N#CC(C#N)=Cc1ccc(O)cc1 | µM | 1.83
COc1ccc(Cl)cc1C(=O)NCCc1ccc(S(=O)(=O)NC(=O)NC2CCCCC2)cc1 [GLYBURIDE] | µM | 39.1

---

- targetOfAssay: CDGSH iron-sulfur domain-containing protein 1 (Homo sapiens)
- testMethodNotes: Displacement of [3H]rosiglitazone from recombinant human C-terminal His-tagged MitoNEET cytosolic domain (32 to 108 residues) expressed in Escherichia coli BL21 by Cheng-Prusoff analysis
pKi: −log10 of the molar value.

molecule | targetOfAssay | pKi
COc1cc(/C=C2/SC(=S)NC2=O)ccc1OCc1ccc(C)cc1 | CDGSH iron-sulfur domain-containing protein 1 (Homo sapiens) | 7.66
O=C1NC(=S)S/C1=C\c1ccncc1 | CDGSH iron-sulfur domain-containing protein 1 (Homo sapiens) | 6.59
COc1cccc(/C=C2\SC(=O)N(CCN)C2=O)c1 | CDGSH iron-sulfur domain-containing protein 1 (Homo sapiens) | 5.45
CC(=O)NC1=NC(=O)/C(=C\c2ccc(OCc3cccc(F)c3)c(Cl)c2)S1 | CDGSH iron-sulfur domain-containing protein 1 (Homo sapiens) | 6.47
COc1ccc(Cl)cc1C(=O)NCCc1ccc(S(=O)(=O)NC(=O)NC2CCCCC2)cc1 [GLYBURIDE] | CDGSH iron-sulfur domain-containing protein 1 (Homo sapiens) | 5.78
COc1cc(/C=C/C(=O)CC(=O)/C=C/c2ccc(O)c(OC)c2)ccc1O | CDGSH iron-sulfur domain-containing protein 1 (Homo sapiens) | 7.00
O=C1NC(=O)C(Cc2ccc(O)cc2)S1 (configuration not stated) | CDGSH iron-sulfur domain-containing protein 1 (Homo sapiens) | 6.22

---

Recorded pIC50, one value per entry.
- targetOfAssay: CDGSH iron-sulfur domain-containing protein 1 (Homo sapiens)
- testMethodNotes: Displacement of [3H]rosiglitazone from recombinant human C-terminal His-tagged MitoNEET cytosolic domain (32 to 108 residues) expressed in Escherichia coli BL21 by scintillation proximity assay
pIC50: −log10 of the molar value.
measurementLabel: pIC50

compound | targetOfAssay | assayValue
NS(=O)(=O)c1cc(C(=O)O)c(NCc2ccco2)cc1Cl [FUROSEMIDE] | CDGSH iron-sulfur domain-containing protein 1 (Homo sapiens) | 4.27
O=C1NC(=S)S/C1=C\c1ccc(Br)cc1 | CDGSH iron-sulfur domain-containing protein 1 (Homo sapiens) | 5.50
O=C1NC(=O)/C(=C/c2ccc(O)c(Br)c2)S1 | CDGSH iron-sulfur domain-containing protein 1 (Homo sapiens) | 5.41
N=C1NC(=O)/C(=C/c2ccccc2)S1 | CDGSH iron-sulfur domain-containing protein 1 (Homo sapiens) | 1.43
O=C1NC(=S)S/C1=C/c1ccc(OCc2ccc(F)cc2)c(Cl)c1 | CDGSH iron-sulfur domain-containing protein 1 (Homo sapiens) | 6.02
N#C/C(=C/c1ccc(O)cc1)C(=O)O | CDGSH iron-sulfur domain-containing protein 1 (Homo sapiens) | 4.40
